- testTarget: human GPR119 receptor (Homo sapiens, UniProt Q8TDV5, S329A/T327A)
- Construct: N-terminal leader […]; expressed in transfected cells
- Sequence (Q8TDV5 with tags, fused parts or gaps T327A/S329A): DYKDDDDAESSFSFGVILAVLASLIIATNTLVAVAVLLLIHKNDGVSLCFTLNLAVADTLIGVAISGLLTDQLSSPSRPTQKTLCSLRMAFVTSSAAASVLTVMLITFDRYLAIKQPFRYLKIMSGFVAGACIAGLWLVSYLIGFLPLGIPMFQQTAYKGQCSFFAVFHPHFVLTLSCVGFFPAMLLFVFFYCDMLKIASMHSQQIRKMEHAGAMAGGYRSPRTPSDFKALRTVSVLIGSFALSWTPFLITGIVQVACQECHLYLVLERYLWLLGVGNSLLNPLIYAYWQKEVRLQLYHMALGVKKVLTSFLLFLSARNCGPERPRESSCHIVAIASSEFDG
- methodDescription: cAMP assay (LANCE cAMP-384) in HEK293 cells stably expressing mutant human GPR119 receptor
- Type: cell-based
- setupConditions: cAMP accumulation, HEK293 cells stably expressing mutant human GPR119; read-out: EC50
Form field: EC50 (one value per entry).
Write the value in nM as a bare number.

// below: answered compounds
CC(C)OC(=O)N1CCC(ON=C2CCN(c3nc(Cl)ncc3F)CC2)CC1: 110
CC(C)OC(=O)N1CCC(ON=C2CCN(c3cc(F)c(CN4CCN(C(=O)OC(C)(C)C)CC4=O)cc3F)CC2)CC1: 408
CC(C)OC(=O)NCc1cc(F)c(N2CCC(=NOC3CCN(C(=O)OC(C)C)CC3)CC2)cc1F: 134
CC(C)OC(=O)N1CCC(ON=C2CCN(c3cc(F)c(Cn4cnc5ccncc54)cc3F)CC2)CC1: 763
CC(C)OC(=O)N1CCC(ON=C2CCN(c3cc(F)c([S+](C)[O-])cc3F)CC2)CC1 (centres unmarked) [Example 43-1]: 58

Query block: Which EC50 value belongs to CNCCNC(=O)c1cc(F)c(N2CCC(=NOC3CCN(C(=O)OC(C)C)CC3)CC2)cc1F ?
Result block: 424

Attribution: patent US8293729B2
